Origin of the recorded values: PubChem BioAssay AID720540

Molecular target: Protein phosphatase EYA2 (Homo sapiens) (UniProt O00167)
Sequence (O00167 whole entry, looked up): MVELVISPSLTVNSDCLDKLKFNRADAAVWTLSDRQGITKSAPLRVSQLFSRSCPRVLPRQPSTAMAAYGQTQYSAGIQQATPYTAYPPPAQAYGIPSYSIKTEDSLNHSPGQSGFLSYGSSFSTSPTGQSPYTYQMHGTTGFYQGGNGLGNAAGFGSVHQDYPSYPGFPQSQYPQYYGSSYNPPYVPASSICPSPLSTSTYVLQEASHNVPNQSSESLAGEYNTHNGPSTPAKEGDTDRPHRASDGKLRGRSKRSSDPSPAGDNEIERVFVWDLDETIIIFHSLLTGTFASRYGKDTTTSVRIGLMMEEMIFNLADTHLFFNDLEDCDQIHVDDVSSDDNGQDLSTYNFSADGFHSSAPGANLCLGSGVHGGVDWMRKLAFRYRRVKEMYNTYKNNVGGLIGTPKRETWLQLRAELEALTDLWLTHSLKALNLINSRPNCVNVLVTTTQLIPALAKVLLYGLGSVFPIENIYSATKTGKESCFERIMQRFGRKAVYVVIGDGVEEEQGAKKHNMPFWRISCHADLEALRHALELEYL
Test: qHTS for Inhibitors of the Phosphatase Activity of Eya2: Confirmatory Assay for Cherry-picked Compounds; further: nearly all actives have a fitted effect of over 65% in size
Settings: purified EYA2 phosphatase activity, qHTS confirmation; series mostly up to 46.1 µM
In all, about 1,300 compounds went through this assay and about 460 (35%) were called active. Not shown: some 39% with an inconclusive outcome. The call rests on the fitted dose curve; in most records, active means well fitted inhibition curve with a large enough effect; inconclusive means small, poorly fitted or top-dose-only effect; inactive means flat fitted curve, though single readings scatter. The list shows a part of the results.
Lab note: assign the record to one of Y = active, N = inactive

## Task Any idea what this test logged for O=S(=O)(Nc1nccs1)c1ccc(NCc2cc(Br)cc(Br)c2O)cc1 ?
## Result Y

## Task Entry COc1ccc(C(=O)N2CCOCC2)cc1S(=O)(=O)N1CCCc2ccccc21 : call = ?
## Result N

## Task I would be grateful if you could indicate the recorded call for CC1=CC(C)(C)Nc2ccc(OC(=O)CN3C(=O)c4ccccc4C3=O)cc21 .
## Result N

## Task Test call for this compound, please: O=C1N=c2ccccc2=C1c1sc(Nc2cccc(O)c2)nc1O
## Result N

## Task What did this assay record as the result for CCOC(=O)C1=C(N)Oc2c(oc(CO)cc2=O)C1c1ccc(Cl)cc1 (configuration not stated) ?
## Result N

## Task How was CN(C1=C(N2CCCCC2)C(=O)c2ccccc2C1=O)c1ccccc1 classified in this test?
## Result Y

## Task Outcome logged for Cc1sc(NC(=O)C2=COCCO2)c(C(N)=O)c1C in this assay:
## Result Y

## Task For O=C1C(Nc2cccc(O)c2)=C(N2CCCCC2)C(=O)c2ccccc21 , what call appears in the results of this test?
## Result Y

## Task What is the recorded call for this compound in the test? O=[N+]([O-])c1ccccc1/C=C\C=N\N1CCN(c2ccccc2)CC1
## Result Y

## Task Record request — test call for COC(=O)c1cc2c(ccc3ccccc32)oc1=O
## Result Y

## Task For O=C1C(NS(=O)(=O)c2ccc(Br)cc2)=C(N2CCCCC2)C(=O)c2ccccc21 , which call appears in the assay record?
## Result Y

## Task Test call for this compound, please: CC12CC3(C)CC(C)(C1)CC(C(=O)NC(=S)N1CCOCC1)(C2)C3
## Result N

## Task Recorded test call requested for COc1cc(N=c2oc3c(C)ncc(CO)c3cc2C(N)=O)cc(OC)c1OC
## Result Y

## Task Any idea what this test logged for Cn1c(=O)n(CCO)c(=O)c2c1nc(Br)n2Cc1ccccc1 ?
## Result N

## Task What was the test verdict on Cn1c(=O)n(Cc2ccc(F)cc2)c(=O)c2c1nc1n2CCN1Cc1ccco1 ?
## Result Y

## Task Please let me know the test result on file for O=C(NN1C(=O)/C(=C/C=C/c2ccco2)SC1=S)c1ccncc1 .
## Result Y

## Task Test call for this compound, please: CC(=O)N1CCN(/[N+]([O-])=N/Oc2ccc([N+](=O)[O-])cc2[N+](=O)[O-])CC1
## Result Y

## Task Status in this test for CCc1nnc(NS(=O)(=O)c2ccc(NCc3cc(Cl)cc(Cl)c3O)cc2)s1 ?
## Result Y

## Task // param item: O=C(Oc1ccc(C(=S)N2CCOCC2)cc1Br)c1ccccc1F ; yields the recorded call
## Result Y

## Task // return assay outcome for CC1CCCN(c2ccc3nc4ccccc4c(=O)n3n2)C1 (configuration not stated)
## Result Y

## Task Recorded call for O=C(Oc1ccc(C(=S)N2CCOCC2)cc1Cl)c1ccccc1F ?
## Result Y

## Task Hi team, can someone confirm the assay call for Cc1cccc(NC2=C(NCCO)C(=O)c3ccccc3C2=O)c1 ?
## Result Y

----------
Molecular target: Protein phosphatase EYA2 (Homo sapiens) (UniProt O00167)
Assay: qHTS for Inhibitors of the Phosphatase Activity of Eya2: Confirmatory Assay for Cherry-picked Compounds; further: nearly all actives have a fitted effect of over 65% in size; further: potency means the concentration at half of the fitted maximal effect
Conditions: purified EYA2 phosphatase activity, qHTS confirmation; series mostly up to 46.1 µM
The whole screen tested about 1,300 compounds, of which about 460 (35%) were called active. Roughly 39% stayed inconclusive and do not appear here. Some of the results follow.
Endpoint Name: Potency

For orientation, consider the following solved cases.
{"columns": ["Compound", "Endpoint Name", "Test Result"],
 "data": [
  ["COc1ccc(Oc2nc(-c3ccccn3)ncc2OC)cc1", "Potency", "19 µM (active)"],
  ["COc1ccccc1CNC(=O)CSc1ccc(-c2ccccn2)nn1", "Potency", "12 µM (active)"],
  ["O=S(=O)(Nc1cccc2cccnc12)c1ccccc1Br", "Potency", "16.9 µM (active)"],
  ["COc1ccc(N(CC(=O)N2CCCCC2)S(=O)(=O)c2c(C)nn(C)c2C)cc1", "Potency", "inactive"]
]}

# Potency (compound: COc1ccc(C(=O)CC(=O)Nc2ccc([N+](=O)[O-])cc2)cc1 ) is inactive

----------
Target: Protein phosphatase EYA2 (Homo sapiens)
Assay: qHTS for Inhibitors of the Phosphatase Activity of Eya2: Confirmatory Assay for Cherry-picked Compounds; further: nearly all actives have a fitted effect of over 65% in size
Conditions: purified EYA2 phosphatase activity, qHTS confirmation; series mostly up to 46.1 µM
In all, about 1,300 compounds went through this assay and about 460 (35%) were called active. Another 39% or so got no clear call; they are omitted. The call rests on the fitted dose curve; in most records, active means well fitted inhibition curve with a large enough effect; inconclusive means small, poorly fitted or top-dose-only effect; inactive means flat fitted curve, though single readings scatter. The list shows a part of the results.
Returns: one label drawn from active, inactive

## Task Recorded test call requested for CN1C(=O)NC(c2ccccc2)(C(F)(F)F)S/C1=C(/C#N)c1nnc(N2CCOCC2)n1-c1ccccc1 (stereo not drawn)
## Result inactive

## Task I'd appreciate the recorded outcome for COc1cc(NC(=O)c2ccccc2Cl)ccc1NC(=O)c1cccs1 from this test.
## Result inactive

## Task What did this assay record as the result for CC(C)Nc1nnc(SCC(=O)Nc2ccc3c(c2)C(=O)c2ccccc2C3=O)s1 ?
## Result active

## Task State the result this test recorded for O=C(NCCCO)c1ccc2nc(-c3ccco3)c(-c3ccco3)nc2c1 .
## Result active

## Task Which result was noted for this molecule in the test: COc1ccc(S(=O)(=O)c2c(O)c3ccc(C(=O)Nc4cccc(F)c4)cc3[nH]c2=O)cc1
## Result active

## Task Hi team, can someone confirm the assay call for Cc1cccc(S(=O)(=O)C(C#N)c2nc3ccccc3nc2N2CCOCC2)c1 (stereo not drawn) ?
## Result inactive

## Task Outcome? Cc1cc(NC(=O)CSc2nnc(Nc3ccccc3F)s2)no1
## Result inactive

## Task Just curious, what result did COc1ccccc1OCc1ccc(C(=O)Nc2cc(OC)c(OC)c(OC)c2)o1 get here?
## Result inactive

## Task Hi, do you know how CCCCC(=O)NC(c1cccc([N+](=O)[O-])c1)c1ccc2cccnc2c1O (stereo not drawn) came out in this test?
## Result active

## Task For COc1ccc(Cc2nc3c4c(ncn3n2)Oc2ccc3ccccc3c2C4c2ccc(OC)c(OC)c2)cc1 (stereo not drawn) , what call appears in the results of this test?
## Result inactive

## Task // param item: CCN(CC)c1ccc(/C=C2\C=Cc3ccccc32)cc1 ; yields the recorded call
## Result active

## Task For this molecule, state the assay outcome: CN(C)C1=C2C=CC=CC2/C(=C2/C=Cc3ccccc32)C=C1 (stereo not drawn)
## Result active

## Task Outcome? O=C(CSc1ccc(-c2ccccn2)nn1)N1CCCCC1
## Result active

## Task Tell me the assay call for C/C(N)=C(/C#N)C(=O)CSc1nnc(Nc2cccc(C)c2)s1 please.
## Result inactive

## Task Please state the recorded outcome for this molecule: CC(=O)NC(c1ccc(Cl)cc1)c1ccc2cccnc2c1O (stereo not drawn)
## Result active

## Task Lab log entry: COc1cc(OC)c(NC(=O)CN(C)S(=O)(=O)c2ccc(-c3ccc(=O)[nH]n3)s2)cc1Cl — outcome as called in the assay?
## Result active

## Task For this molecule, state the assay outcome: COc1cccc(NC(=O)c2ccc3c(c2)CCN3S(C)(=O)=O)c1
## Result inactive

## Task What did the test return for Cc1ccc(NC(=O)c2ccc3c(c2)OCO3)cc1S(=O)(=O)N1CCOCC1 ?
## Result active

## Task Field: outcome | Entry: Cc1ccc(CNC(=O)c2ccc(-n3cccc3)cc2)cc1
## Result inactive

## Task Recorded call for CN(C)C(CNC(=O)c1ccc2c(c1)S(=O)(=O)c1ccccc1C2=O)c1ccco1 (stereo not drawn) ?
## Result inactive

## Task Assay outcome for COc1ccc(C(=O)Nc2nc(-c3ccccn3)cs2)cc1S(=O)(=O)N1CCOCC1 : what was it?
## Result active

## Task Tell me the assay call for COc1ccc(C(=O)/C=C/Nc2ccc(S(=O)(=O)Nc3nc(C)cc(C)n3)cc2)cc1OC please.
## Result active

## Task Per the assay record, what outcome was assigned to CN1/C(=C\C=C2/SC(=S)NC2=O)C(C)(C)c2ccccc21 ?
## Result active

## Task Assay outcome for CCCCC(=O)NC(c1ccco1)c1cc(Cl)c2cccnc2c1O (stereo not drawn) : what was it?
## Result active

## Task Any idea what this test logged for COc1ccc(C(=O)Nc2ccc3c(c2)CCCN3C(=O)c2cccs2)c(OC)c1 ?
## Result active

## Task For this molecule, state the assay outcome: O=S(=O)(c1ccc(Cl)cc1)N1CCOCC1
## Result inactive

## Task Which outcome was assigned to COC(=O)c1ccc(CSc2ccc3nnc(-c4ccccn4)n3n2)o1 in this test?
## Result active

## Task What outcome does the record of this test show for O=C(Oc1ccc(Cl)c2cccnc12)C12CC3CC(CC(C3)C1)C2 ?
## Result inactive

## Task Can you look up the reported call for S=C(Nc1ccc2c(c1)OCCO2)Nc1ccc2c(c1)OCO2 for me?
## Result inactive

## Task What did this assay record as the result for CN(C)c1ccc(C=C2C=Cc3ccccc32)cc1 ?
## Result active

## Task Could you kindly confirm the outcome this assay logged for O=C(NCc1ccccc1)c1ccc2nc(-c3ccco3)c(-c3ccco3)nc2c1 ?
## Result active

## Task Name the outcome recorded for NC(=O)[C@@H]1CC2(CC(c3cccc(NC(=O)COc4ccc(Cl)cc4)c3)=NO2)CN1C(=O)COc1ccc(Cl)cc1 (stereo partly drawn) in the assay.
## Result inactive

## Task Any idea what this test logged for COc1cc(NS(=O)(=O)c2ccc(N/C=C\C(=O)c3ccc(OC)c(OC)c3)cc2)nc(OC)n1 ?
## Result active

## Task What did this assay record as the result for c1ccc(CSc2ccc3nnc(-c4ccccn4)n3n2)cc1 ?
## Result active

## Task Dear colleague, could you share the recorded outcome for COc1ccccc1NC(=O)c1ccc(NC(=O)Cc2n[nH]c(=O)c3ccccc23)cc1 when you have a moment?
## Result inactive

## Task Kindly provide the recorded test outcome for the following molecule: O=c1[nH]c(=O)n(C2C[C@H](O)[C@@H](CO)O2)cc1C(F)(F)F (stereo partly drawn)
## Result inactive

## Task Test call for this molecule, please: CC1=C/C(=C\c2ccc(N(C)C)cc2)c2ccccc21
## Result active

## Task For this molecule, state the assay outcome: COc1ccc(C(CCNCc2ccc(N(C)C)cc2)C(C)C)cc1 (stereo not drawn)
## Result active

## Task Would you mind telling me which call this test gave Cn1nc(C(=O)Nc2nc3ccccc3[nH]2)c2ccccc2c1=O ?
## Result active

## Task Please indicate how the test categorized CCC(=O)NC(c1ccc(OC)c(OC)c1)c1cc(Cl)c2cccnc2c1O (stereo not drawn) .
## Result active

## Task Record lookup: outcome of this test for CC(C(=O)c1ccc(Br)cc1)[n+]1cccc2ccccc21 (stereo not drawn) ?
## Result inactive

## Task Field: outcome | Entry: COc1ccccc1OCC(=O)Nc1ccc(C(=O)Nc2ccccc2C(=O)O)cc1
## Result active

## Task Write down the call the test reported for this molecule. Item: COc1ccc(C(NC(C)=O)c2ccc3cccnc3c2O)cc1OC (stereo not drawn)
## Result active
